- System: MiaPaCa-2 cells
- measurement-notes: MiaPaCa-2 Cell proliferation assay in 3D culture (CCK8)
- Type: cell-based
- condition-summary: Homo sapiens, MIA PaCa-2, 120 h; 3D spheroid culture, 5 days with compound, CCK8 readout
pIC50: −log10 of the molar value.
measured-parameter: pIC50

In [3]: df
Out[3]:
                               smiles_input    data_value
0  Cc1noc(C)c1S(=O)(=O)NC(=O)Nc1cccc(Sc2cnc(N3CCC4(CC3)CO[C@@H](C)[C@H]4N)cn2)c1Cl        ≥ 6.30
1  CC1(CN)CCN(c2cnc(Sc3cccc(C(=O)NS(=O)(=O)C4CCCC4)c3Cl)cn2)CC1  5.30 to 6.30
2  C[C@@H]1OCC2(CCN(c3cnc(Sc4cccc(NC(=O)NS(=O)(=O)c5ccccn5)c4Cl)cn3)CC2)[C@@H]1N        ≥ 6.30
3  CC1(CN)CCN(c2cnc(Sc3cccc(NC(=O)NS(=O)(=O)c4ccccn4)c3Cl)c(N)n2)CC1        ≥ 6.30
4  C[C@@H]1OCC2(CCN(c3cnc(Sc4cncc(NC(=O)NS(=O)(=O)c5ccccc5)c4Cl)cn3)CC2)[C@@H]1N  5.30 to 6.30
5  CC1(CN)CCN(c2cnc(Sc3cccc(NC(=O)NS(=O)(=O)C4CCCC4)c3Cl)c(N)n2)CC1        ≥ 6.30
6  CC1(N)CCN(c2cnc(Sc3cccc(C(=O)NS(=O)(=O)c4ccccc4)c3Cl)cn2)CC1  5.30 to 6.30
7  CC1(CN)CCN(c2cnc(Sc3ccnc(NC(=O)NS(=O)(=O)c4ccccc4)c3Cl)cn2)CC1        ≥ 6.30
8  CC1(N)CCN(c2cnc(Sc3cccc(NC(=O)NS(=O)(=O)c4ccccc4)c3Cl)cn2)CC1        ≥ 6.30

###

- Test system: MiaPaCa-2 cells
- measurement-notes: MiaPaCa-2 Cell proliferation assay in 3D culture (CCK8)
- Assay type: cell-based
- condition-summary: Homo sapiens, MIA PaCa-2, 120 h; 3D spheroid culture, 5 days with compound, CCK8 readout
measured-parameter: IC50

In [3]: df
Out[3]:
                               smiles_input      data_value
0  C[C@@H]1OCC2(CCN(c3cnc(Sc4ccnc(NC(=O)NS(=O)(=O)c5cncc(F)c5)c4Cl)cn3)CC2)[C@@H]1N        ≤ 500 nM
1  C[C@@H]1OCC2(CCN(c3cnc(Sc4ccnc(C(=O)NS(=O)(=O)c5ccccc5)c4Cl)cn3)CC2)[C@@H]1N  500 to 5000 nM
2  CC1(CN)CCN(c2cnc(Sc3cccc(C(=O)NS(=O)(=O)c4cccnc4)c3Cl)c(N)n2)CC1  500 to 5000 nM
3  C[C@@H]1OCC2(CCN(c3cnc(Sc4ccnc(NC(=O)NS(=O)(=O)c5cccc(F)c5)c4Cl)cn3)CC2)[C@@H]1N        ≤ 500 nM

###

- study-system: SHP2 (PTPN11/SHP2-FL) (Homo sapiens, UniProt Q06124)
- Construct: SHP2 (PTPN11/SHP2-FL, RBC produced, no cat #)
- Sequence (Q06124 whole entry): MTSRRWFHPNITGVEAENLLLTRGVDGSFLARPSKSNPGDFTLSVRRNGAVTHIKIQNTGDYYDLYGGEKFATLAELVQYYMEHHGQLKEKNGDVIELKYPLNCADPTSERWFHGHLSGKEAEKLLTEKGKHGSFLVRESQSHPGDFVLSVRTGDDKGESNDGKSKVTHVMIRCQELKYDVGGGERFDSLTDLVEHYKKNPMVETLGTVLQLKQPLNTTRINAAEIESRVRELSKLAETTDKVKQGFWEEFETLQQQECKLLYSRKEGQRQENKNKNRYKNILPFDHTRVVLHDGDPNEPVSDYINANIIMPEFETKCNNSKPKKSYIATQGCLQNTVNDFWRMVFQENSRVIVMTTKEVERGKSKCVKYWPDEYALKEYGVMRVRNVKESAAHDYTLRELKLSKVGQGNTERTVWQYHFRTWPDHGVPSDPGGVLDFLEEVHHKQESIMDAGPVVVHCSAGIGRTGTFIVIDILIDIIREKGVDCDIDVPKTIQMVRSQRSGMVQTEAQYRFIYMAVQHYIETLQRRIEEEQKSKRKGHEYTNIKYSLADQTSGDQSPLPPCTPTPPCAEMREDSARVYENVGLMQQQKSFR
- measurement-notes: SHP2 biochemical assay (DiFMUP prompt fluorescence)
- condition-summary: 0.5 nM SHP2, 0.35 μM activating peptide, DiFMUP 100 μM; read-out: SHP2 bichemical activity (IC50)
pIC50: −log10 of the molar value.
measured-parameter: pIC50

>>> df
                                smiles_input    data_value
 0  CC1(CN)CCN(c2cnc(Sc3cccc(NC(=O)NS(=O)(=O)c4ccncc4)c3Cl)c(N)n2)CC1        ≥ 8.00
 1  CC1(CN)CCN(c2cnc(Sc3cccc(NC(=O)NS(C)(=O)=O)c3Cl)cn2)CC1        ≥ 8.00
 2  CC1(CN)CCN(c2cnc(Sc3cccc(NC(=O)NS(=O)(=O)C4CCCC4)c3Cl)c(N)n2)CC1        ≥ 8.00
 3  CC1(CN)CCN(c2cnc(Sc3cccc(C(=O)NS(=O)(=O)c4ccccc4F)c3Cl)cn2)CC1        ≥ 8.00
 4  CC1(CN)CCN(c2cnc(Sc3cccc(C(=O)NS(=O)(=O)c4ccccc4F)c3Cl)c(N)n2)CC1        ≥ 8.00
 5  CC1(N)CCN(c2cnc(Sc3cccc(NC(=O)NS(=O)(=O)c4ccccc4)c3Cl)cn2)CC1  7.00 to 8.00
 6  CC1(N)CCN(c2cnc(Sc3cccc(C(=O)NS(=O)(=O)c4ccccc4)c3Cl)cn2)CC1        ≥ 8.00
 7  CC1(CN)CCN(c2cnc(Sc3cccc(C(=O)NS(=O)(=O)c4ccncc4)c3Cl)c(N)n2)CC1  7.00 to 8.00
 8  CC1(CN)CCN(c2cnc(Sc3cccc(NC(=O)NS(C)(=O)=O)c3Cl)c(N)n2)CC1        ≥ 8.00
 9  CC1(N)CCN(c2cnc(Sc3cccc(NC(=O)NS(=O)(=O)c4ccccc4)c3Cl)c(N)n2)CC1        ≥ 8.00
10  CC1(CN)CCN(c2cnc(Sc3cccc(C(=O)NS(=O)(=O)C4CC4)c3Cl)c(N)n2)CC1  7.00 to 8.00
11  CC1(CN)CCN(c2cnc(Sc3cccc(C(=O)NS(=O)(=O)c4ccccn4)c3Cl)c(N)n2)CC1        ≥ 8.00
12  CC1(CN)CCN(c2cnc(Sc3cccc(NC(=O)NS(=O)(=O)C4CC4)c3Cl)c(N)n2)CC1        ≥ 8.00
13  CC1(CN)CCN(c2cnc(Sc3cccc(NC(=O)NS(=O)(=O)c4ccccc4)c3Cl)cn2)CC1        ≥ 8.00
14  Nc1nc(N2CCC3(CC2)COC[C@H]3N)cnc1Sc1cccc(C(=O)NS(=O)(=O)c2ccccc2)c1Cl        ≥ 8.00
15  CC1(CN)CCN(c2cnc(Sc3cccc(C(=O)NS(=O)(=O)c4ccccn4)c3Cl)cn2)CC1        ≥ 8.00

Data origin, for the record: patent US20250109118A1
